Tested on: C. gloeosporioides
Test: 96-well microtiter plate assay, fungal growth inhibition
Assay type: cell-based, Colletotrichum gloeosporioides
Details: C. gloeosporioides; 0.3 μM; 72 hrs
reportedProperty: Percent inhibition−Percent Stimulation±SEM (%)
Give bare numbers, in %.

Could you tell me Percent inhibition−Percent Stimulation±SEM for each of these compounds? They are listed below.
1. O=C1c2ccccc2-c2nccc3c(Br)cnc1c23
2. COc1cnc2c3c(nccc13)-c1ccccc1C2=O
3. N#CC(CCc1ccc(Cl)cc1)(Cn1cncn1)c1ccccc1 (centres unmarked)
4. CO/N=C(/C(=O)OC)c1ccccc1COc1ccccc1C
5. O=C1c2ccccc2-c2nccc3c2c1nc1ccccc13 [Benzo[4,5]sampangine, benzo[4,5]sampangine]

Reply text:
−99.0
−15.6
−59.1
−58.7
−100.0

* * *

Test system: C. gloeosporioides
Assay: 96-well microtiter plate assay, fungal growth inhibition
Format: cell-based, Colletotrichum gloeosporioides
Details: Colletotrichum gloeosporioides, 72 h, read-out: Percent inhibition−Percent Stimulation±SEM
For each record, write down the corresponding inhibition at 3 µM.
One number for each entry, in %.

compound: CC(C)NC(=O)N1CC(=O)N(c2cc(Cl)cc(Cl)c2)C1=O [Iprodione]
measuredTarget: C. gloeosporioides
inhibition at 3 µM (%): -30.7
//
compound: O=C1C2CC=CCC2C(=O)N1SC(Cl)(Cl)Cl (centres unmarked) [Captan]
measuredTarget: C. gloeosporioides
inhibition at 3 µM (%): 97.9
//
compound: Cc1cc(C2CC2)nc(Nc2ccccc2)n1 [Cyprodinil]
measuredTarget: C. gloeosporioides
inhibition at 3 µM (%): 83.7
//
compound: CC1(C(=O)Nc2ccc(O)c(Cl)c2Cl)CCCCC1 [Fenhexamid]
measuredTarget: C. gloeosporioides
inhibition at 3 µM (%): -16

Inquiry: Any idea what inhibition at 3 µM was measured for CCCCNC(=O)n1c(NC(=O)OC)nc2ccccc21 [Benomyl] ?
Reply text: 59.9

* * *

System: C. fragariae
Test: 96-well microtiter plate assay, fungal growth inhibition
Format: cell-based, Colletotrichum fragariae
Conditions: C. fragariae; 0.3 μM; 48 hrs
Assign Satisfied to entries whose Percent inhibition−Percent Stimulation±SEM meets or exceeds -50%; assign Not satisfied to the rest.

Examples with answers:
molecule: CO/N=C(/C(=O)OC)c1ccccc1COc1ccccc1C
group: Not satisfied
--
molecule: O=C1c2ccccc2-c2nccc3c2c1nc1ccccc13 [Benzo[4,5]sampangine, benzo[4,5]sampangine]
group: Satisfied
--
molecule: N#CC(CCc1ccc(Cl)cc1)(Cn1cncn1)c1ccccc1 (centres unmarked)
group: Satisfied
--
molecule: O=C1c2ccccc2-c2nccc3c(Br)cnc1c23
group: Satisfied

Inquiry: Could you tell me if the measured Percent inhibition−Percent Stimulation±SEM of COc1cnc2c3c(nccc13)-c1ccccc1C2=O reaches -50% or more?
Reply text: Satisfied

* * *

Tested on: B. cinerea
Assay: 96-well microtiter plate assay, fungal growth inhibition
Type: cell-based, Botrytis cinerea
Conditions: Botrytis cinerea, 72 h, read-out: Percent inhibition−Percent Stimulation±SEM
Method: Pathogen production. […] Inoculum preparation. […] Conidia concentrations were determined photometrically, from a standard curve based on the percent of transmittance (% T) at 625 nm and suspensions were then adjusted with sterile distilled water to a concentration of 1.0×10^6 conidia/mL. Microtiter assay. […] Growth was then evaluated by measuring absorbance of each well at 620 nm using a microplate photometer (Packard Spectra Count, Packard Instrument Co., Downers Grove, Ill.). […]
Assign 1.0 to entries whose inhibition at 0.3 µM meets or exceeds 40%; assign 0.0 to the rest.

Examples with answers:
compound: CCCCNC(=O)n1c(NC(=O)OC)nc2ccccc21 [Benomyl]
group: 1.0

compound: CC1(C(=O)Nc2ccc(O)c(Cl)c2Cl)CCCCC1 [Fenhexamid]
group: 1.0

compound: Cc1cc(C2CC2)nc(Nc2ccccc2)n1 [Cyprodinil]
group: 1.0

Inquiry: Could you tell me if the measured inhibition at 0.3 µM of CC(C)NC(=O)N1CC(=O)N(c2cc(Cl)cc(Cl)c2)C1=O [Iprodione] reaches 40% or more?
Reply text: 0.0
